Test Details: Pharmacokinetic evaluation in rats
Assay type: in vivo
Setup Conditions: male, SD, plasma; rat, nucleoside (compound 4) measured; po 10.0 mg/kg vs iv 2.0 mg/kg; read-out: F (oral bioavailability)
Observed Property: bioavailability (%)
Express your answer in %, writing the number without its unit.

Task: # lookup: bioavailability of [2H]c1cc([C@]2(C#N)O[C@H](CO)[C@@H](O)[C@H]2O)n2ncnc(N)c12 [Compound 4]
Result: 21.7

* * *

Test Details: Pharmacokinetic evaluation in rats
Type: in vivo
Setup Conditions: male, SD; nucleoside (compound 4) in rat plasma; iv 2.0 mg/kg
Observed Property: Cmax (ng/mL)
Reply with just the number (in ng/mL).

Task: Tell me the measured Cmax of [2H]c1cc([C@]2(C#N)O[C@H](CO)[C@@H](O)[C@H]2O)n2ncnc(N)c12 , please.
Result: 1630

* * *

Test Details: Pharmacokinetic evaluation in rats
Format: in vivo
Setup Conditions: male, SD; nucleoside (compound 4) in rat plasma; iv 2.0 mg/kg
Observed Property: AUC(0-t)

Task: Fill blank: measured AUC(0-t) of the molecule [2H]c1cc([C@]2(C#N)O[C@H](CO)[C@@H](O)[C@H]2O)n2ncnc(N)c12 is ____.
Result: 1720 ng·h/mL

* * *

Test Details: Pharmacokinetic evaluation in rats
Type: in vivo
Setup Conditions: male, SD; nucleoside (compound 4) in rat plasma; po 10.0 mg/kg
Observed Property: AUC(0-inf)
Could you write the number and then its unit?

Task: Would you kindly share the measured AUC(0-inf) for [2H]c1cc([C@]2(C#N)O[C@H](CO)[C@@H](O)[C@H]2O)n2ncnc(N)c12 ?
Result: 1910 ng·h/mL

* * *

Test Details: Pharmacokinetic evaluation in rats
Type: in vivo
Setup Conditions: male, SD; nucleoside (compound 4) in rat plasma; po 10.0 mg/kg
Observed Property: AUC(0-t) (ng·h/mL)
Report only the number, with the unit ng·h/mL understood.

Task: Could you share which AUC(0-t) value was measured for [2H]c1cc([C@]2(C#N)O[C@H](CO)[C@@H](O)[C@H]2O)n2ncnc(N)c12 ?
Result: 1870
